Residues, ends and D or L forms follow the SMILES beside them. *: point of attachment. Cbz = O=C(OCc1ccccc1)*; Boc = CC(C)(C)OC(=O)*; OBn = c1ccc(CO*)cc1
Metric: melting point

These solved cases illustrate the format of a correct answer.
- Compound: "C#CCCCOc1cc(/C=C/C(=O)Nc2ccccc2C(=O)O)ccc1OC"
  melting point: "154 to 156 °C"
- Compound: "CSCCC(NC(=O)OC(C)(C)C)C(=O)NC(C)C(=O)NC(C(=O)NC(CCCCNC(=O)OCc1ccccc1)C(=O)OCc1ccccc1)C(C)C (stereo not drawn) (Boc-MAVK(Cbz)-OBn; configuration not given here)"
  melting point: "169 to 171 °C"
- Compound: "CC1(C)CCc2c(N3CCSCC3)nc3sc4c(NCc5cccnc5)ncnc4c3c2C1"
  melting point: "257 to 258 °C"

Prompt line: Give the reported melting point for this compound. Cc1nc(NCC(=O)c2ccccc2)c2cc(C)sc2n1
Response line: 159 °C

Prompt line: Give the reported melting point for this compound. COC(=O)c1c([N+](=O)[O-])c(OC)c2c(=O)[nH]c(C)nc2c1OC
Response line: 225 °C

Prompt line: Give the reported melting point for this compound. CC(=O)Nc1cc2c(c(C)c1C)OC(C)(C)C2
Response line: 163 to 164 °C

Prompt line: Give the reported melting point for this compound. Cc1cccc(-c2sc(N)nc2-c2ccnc(-c3ccc(OC(F)(F)F)cc3)c2)n1
Response line: 232 °C

Prompt line: Give the reported melting point for this compound. CC(NC(=O)OC(C)(C)C)C(=O)Nc1cc(CO)cc(Nc2c3ccccc3nc3ccccc23)c1 (stereo not drawn)
Response line: 131 to 133 °C

###

Each entry below lists one item and its recorded melting point value.

These solved cases illustrate the format of a correct answer.
- Molecule: "CN1c2ccccc2CC1COc1ccc(CC2SC(=O)N(C(c3ccccc3)(c3ccccc3)c3ccccc3)C2=O)cc1 (stereo not given)"
  melting point: "62.5 to 65.5 °C"
- Molecule: "CNc1cc(F)ccc1C(=O)CS(=O)(=O)N(C)C"
  melting point: "120 to 124 °C"
- Molecule: "O=C(Nc1ccc2nc(CN3CCCC3)ccc2c1)C1CCN(c2ccc(Cl)cc2)CC1"
  melting point: "204 to 206 °C"
- Molecule: "COc1cc(F)c(C(=O)CCCCCBr)cc1OC"
  melting point: "81 to 83 °C"

# ---- query molecule ----
Prompt line: Give the reported melting point for this molecule. CN(C)c1ccc2c(c1)Sc1cc(N(C)C)ccc1N2C(=O)c1cc(C(C)(C)C)c(O)c(C(C)(C)C)c1
Response line: 212 to 216 °C

###

Metric: melting point

These solved cases illustrate the format of a correct answer.
- Molecule: "COc1cc(COc2nn(-c3ccccc3)cc2/C=C/c2csc(C(C)(C)C)n2)ccc1OCc1nc(-c2ccc(CC(=O)O)cc2)oc1C"
  Result: "113 to 115 °C"
- Molecule: "CC(C)(C)c1ccc(NC(=O)c2ccc(C#N)cc2)cc1"
  Result: "210 to 211 °C"
- Molecule: "O=C(CCc1ccccc1)C(Cc1ccccc1)(Cc1ccccc1)C(=O)CCc1ccccc1"
  Result: "84 to 86 °C"

Prompt line: Give the reported melting point for this molecule. Cc1c(NC(=O)c2ccc(-c3ccccc3)cc2F)ccc2cc(CN3CCCCCC3)cnc12
Response line: 151 to 153 °C

Prompt line: Give the reported melting point for this molecule. Nc1c(-c2ccc(NS(=O)(=O)c3ccccc3Cl)cc2F)cnc2c(CO)cnn12
Response line: 204 to 208 °C

Prompt line: Give the reported melting point for this molecule. COc1ccc(N2CCN(c3c(C)c(C)c4c(c3C)C(c3ccc(Cl)cc3)C(C)(C)O4)CC2)cc1 (centres undefined)
Response line: 181 to 183 °C

Prompt line: Give the reported melting point for this molecule. ON=CCOc1ccc(Oc2ccccc2)cc1
Response line: 102 to 105 °C

Prompt line: Give the reported melting point for this molecule. CN(C)S(=O)(=O)N1CCN(S(=O)(=O)c2ccc(Oc3ccccc3)cc2)[C@@H](C(=O)NO)C1
Response line: 153 to 155 °C

Prompt line: Give the reported melting point for this molecule. CCOC(=O)CNc1ncccc1[N+](=O)[O-]
Response line: 38 to 39 °C
